Experimental system: T1, DNA ligase IIIα (LIGIIIα) (UniProt P49916-3 1-922)
T1 sequence: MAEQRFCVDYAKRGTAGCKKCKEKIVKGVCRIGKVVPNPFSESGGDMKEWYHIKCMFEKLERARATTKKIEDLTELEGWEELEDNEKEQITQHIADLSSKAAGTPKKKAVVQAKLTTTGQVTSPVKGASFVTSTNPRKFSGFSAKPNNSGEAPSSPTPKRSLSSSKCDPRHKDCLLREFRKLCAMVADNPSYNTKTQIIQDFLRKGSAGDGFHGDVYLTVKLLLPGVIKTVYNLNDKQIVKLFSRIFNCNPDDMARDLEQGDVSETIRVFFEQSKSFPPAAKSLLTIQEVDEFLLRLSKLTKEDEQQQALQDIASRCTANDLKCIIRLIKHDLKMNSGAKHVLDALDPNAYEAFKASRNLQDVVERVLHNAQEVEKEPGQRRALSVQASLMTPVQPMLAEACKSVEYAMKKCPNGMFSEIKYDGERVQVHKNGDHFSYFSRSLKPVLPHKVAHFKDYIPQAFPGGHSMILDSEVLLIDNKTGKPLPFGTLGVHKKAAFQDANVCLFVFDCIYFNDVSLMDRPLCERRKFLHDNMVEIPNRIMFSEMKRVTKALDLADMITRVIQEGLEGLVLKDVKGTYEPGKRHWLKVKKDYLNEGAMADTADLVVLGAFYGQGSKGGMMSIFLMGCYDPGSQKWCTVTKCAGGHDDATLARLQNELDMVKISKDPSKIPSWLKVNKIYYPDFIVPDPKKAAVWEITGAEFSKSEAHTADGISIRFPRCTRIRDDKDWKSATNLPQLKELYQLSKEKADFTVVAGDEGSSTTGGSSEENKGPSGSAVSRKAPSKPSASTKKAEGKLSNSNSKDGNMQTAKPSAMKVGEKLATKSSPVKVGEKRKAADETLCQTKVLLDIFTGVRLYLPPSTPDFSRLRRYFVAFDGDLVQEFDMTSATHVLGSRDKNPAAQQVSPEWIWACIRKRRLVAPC
Experiment notes: BLI; BLI (Octet QKe), 20 °C: polβ, APE1, LIGIIIα in 20 mM Hepes pH 7.4, 200 mM NaCl, 0.5% BSA, 0.05% Tween 20; LIG1 in 50 mM Tris-HCl pH 7.5, 100 mM KCl, 1 mM DTT; no Mg2+ listed
Reported conditions: protein: recombinant; tags: His; label: 3'-biotin on strand 2; nicked duplex; strands 1 and 2 pair with strand 3; blunt outer ends
Test readout: Kd

binder="nick DNA (3'-dG:C) (dsDNA, 5'-phosphate on strand 2 at the nick; 3'-OH on strand 1) DNA 1: CATGGGCGGCATGAACCG DNA 2: GAGGCCCATCCTCACC DNA 3: GGTGAGGATGGGCCTCCGGTTCATGCCGCCCATG" result="~7 nM"
